Origin of values: the supplement of paper PMC3334620

Tgt: Vhr1 (UniProt P40522)
Sequence: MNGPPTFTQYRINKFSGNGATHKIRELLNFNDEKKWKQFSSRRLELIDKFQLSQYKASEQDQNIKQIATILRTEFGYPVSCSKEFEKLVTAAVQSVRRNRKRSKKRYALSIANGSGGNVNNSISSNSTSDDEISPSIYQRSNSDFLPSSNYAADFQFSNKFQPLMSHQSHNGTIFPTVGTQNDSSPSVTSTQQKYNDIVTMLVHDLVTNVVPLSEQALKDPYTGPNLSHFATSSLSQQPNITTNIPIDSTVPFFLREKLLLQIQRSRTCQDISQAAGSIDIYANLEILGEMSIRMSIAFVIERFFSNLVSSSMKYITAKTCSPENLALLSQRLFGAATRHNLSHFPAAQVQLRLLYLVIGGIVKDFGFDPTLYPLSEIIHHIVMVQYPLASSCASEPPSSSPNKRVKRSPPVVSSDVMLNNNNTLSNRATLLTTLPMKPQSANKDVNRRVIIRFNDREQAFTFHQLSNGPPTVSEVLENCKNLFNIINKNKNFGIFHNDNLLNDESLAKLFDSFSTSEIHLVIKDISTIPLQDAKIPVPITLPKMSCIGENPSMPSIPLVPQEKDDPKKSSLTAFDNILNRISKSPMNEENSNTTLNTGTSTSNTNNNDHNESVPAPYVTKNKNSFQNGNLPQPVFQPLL
Assay explanation: PBM E-score (8-mer binding enrichment) (E-score (-0.5 to 0.5)); higher = stronger / more preferred TF binding
Test conditions: protein concentration: 200 nM; construct: GST-full length
Whole data set: some 33,000 sequences, median “E-score (-0.5 to 0.5)” near -0.012, cut for the highest 2% near 0.27. For the sample, the highest values were picked, then their nearest neighbours and some sequences at random.
The label depends only on PBM E-score: 1 if it is at least 0.07, -1 if it is smaller.

Query string: Does the sequence CGTCGAAG have recorded PBM E-score that is 0.07 or more?
Result string: 1

Query string: Confirm if PBM E-score reported for the sequence AGTGACCG is 0.07 or above.
Result string: -1

---

Tgt: Vhr1 (UniProt P40522)
Sequence: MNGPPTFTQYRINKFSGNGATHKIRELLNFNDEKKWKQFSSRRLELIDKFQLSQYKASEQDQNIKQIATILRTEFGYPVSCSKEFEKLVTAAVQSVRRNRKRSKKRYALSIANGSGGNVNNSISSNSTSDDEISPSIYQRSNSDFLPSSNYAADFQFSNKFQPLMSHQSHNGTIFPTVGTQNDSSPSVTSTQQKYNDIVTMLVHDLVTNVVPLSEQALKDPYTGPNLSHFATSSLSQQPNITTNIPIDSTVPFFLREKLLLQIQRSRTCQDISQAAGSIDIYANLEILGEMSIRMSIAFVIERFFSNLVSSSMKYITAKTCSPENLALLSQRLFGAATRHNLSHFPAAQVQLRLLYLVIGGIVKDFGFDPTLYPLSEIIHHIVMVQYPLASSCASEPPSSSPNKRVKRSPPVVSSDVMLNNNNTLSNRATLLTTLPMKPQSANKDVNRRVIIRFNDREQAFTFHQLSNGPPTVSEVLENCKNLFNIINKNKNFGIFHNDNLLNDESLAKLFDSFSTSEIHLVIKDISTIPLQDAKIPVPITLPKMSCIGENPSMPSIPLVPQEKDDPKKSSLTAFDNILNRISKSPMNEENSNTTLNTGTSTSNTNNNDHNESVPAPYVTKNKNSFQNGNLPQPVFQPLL
Assay explanation: PBM E-score (8-mer binding enrichment) (E-score (-0.5 to 0.5)); higher = stronger / more preferred TF binding
Test conditions: protein concentration: 200 nM; construct: GST-full length
Over roughly 33,000 sequences, “E-score (-0.5 to 0.5)” has its median near -0.012; the highest 2% begin near 0.27. Only a selection was taken, and the highest values are over-represented in it overall.
Assign Y whenever PBM E-score does not fall below 0.03; assign N whenever it does.

{"Sequence content": "ATTCGGCC", "Tgt": "Vhr1 (UniProt P40522)", "Label class": "N"}

Attention now shifts to the item below.
Query string: Answer whether PBM E-score of CGCGAGTC is greater than or equal to 0.03.
Result string: Y
